Origin of measurements: patent US8653095B2

pIC50: recorded values
- Tested on: P. falciparum TM6
- Experiment Summary: In vitro blood stage antimalarial efficacy, [3H]hypoxanthine uptake, strain TM6
- Format: cell-based
- Measurement Context: Plasmodium falciparum; read-out: IC50
On this scale, pIC50 is minus log10 of a concentration expressed in M (mol/L).

# molecule CC[C@@H](N)[C@H](O)[C@H](O)[C@H](COC)[C@@H]1CC[C@@]23CC24c2nc5ccc(OC)cc5cc2C(=O)N[C@H]4CN13 (stereo partly drawn) [Formula B] ; its pIC50 = 9.74

# molecule CCN(CC)Cc1cc(Nc2ccnc3cc(Cl)ccc23)ccc1O [Amodiaquine, reference compound] ; its pIC50 = 8.12

# next molecule below
# molecule COC[C@@H]([C@@H](O)[C@@H](O)[C@H](N)Cc1ccccc1)[C@@H]1CC[C@@]23CC24c2nc5ccc(OC)cc5cc2C(=O)N[C@H]4CN13 (stereo partly drawn) [Formula C] ; its pIC50 = 10.05
